The origin of these recorded values is ChEMBL document CHEMBL2311360.

Tested on: HCT-116/VM46
Experiment Description: Cytotoxicity against human vinblastine-resistant HCT116/VM46 cells assessed as growth inhibition after 72 hrs by phosphatase assay
Assay type: functional, cell-based
Conditions: HCT-116/VM46, 72 h
Endpoint Label: pIC50
Answers are plain numbers, as −log10 of the molar value.

Compound	Tgt	pIC50
CCC1=C[C@@H]2CN(C1)Cc1c([nH]c3ccccc13)[C@@](C(=O)OC)(c1cc3c(cc1OC)N(C)[C@H]1[C@@](O)(C(=O)OC)[C@H](OC(C)=O)[C@]4(CC)C=CCN5CC[C@]31[C@@H]54)C2 [VINORELBINE]	HCT-116/VM46	6.22
CC[C@]1(O)C[C@H]2CN(CCc3c([nH]c4ccccc34)[C@@](C(=O)OC)(c3cc4c(cc3OC)N(C)[C@@H]3[C@]45CCCN4CC=C[C@@](CC)(C[C@]3(O)C(=O)OC)[C@H]45)C2)C1	HCT-116/VM46	5.24
CC[C@]1(O)C[C@H]2CN(CCc3c([nH]c4ccccc34)[C@@](C(=O)OC)(c3cc4c(cc3OC)N(C)[C@H]3[C@@](O)(C(=O)OC)[C@H](OC(C)=O)[C@]5(CC)CCN6CC[C@]43[C@@H]65)C2)C1	HCT-116/VM46	5.11
CC[C@]1(O)C[C@H]2CN(CCc3c([nH]c4ccccc34)[C@@](C(=O)OC)(c3cc4c(cc3OC)N(C)[C@@H]3[C@]45CCCN4CCC[C@@](CC)(C[C@]3(O)C(=O)OC)[C@@H]45)C2)C1	HCT-116/VM46	6.05
CC[C@]1(O)C[C@H]2CN(CCc3c([nH]c4ccccc34)[C@@](C(=O)OC)(c3cc4c(cc3OC)N(C)[C@@H]3[C@]45CCN4CCC[C@@](CC)(C[C@]3(O)C(=O)OC)[C@H]45)C2)C1	HCT-116/VM46	5.40

Kindly give each listed record's pIC50.
1. CC[C@]1(O)C[C@H]2CN(CCc3c([nH]c4ccccc34)[C@@](C(=O)OC)(c3cc4c(cc3OC)N(C)[C@@H]3[C@]45CCCN4CC=C[C@@](CC)(C[C@]3(O)C(=O)OC)[C@@H]45)C2)C1
2. CCC1=C[C@H]2CN(CCc3c([nH]c4ccccc34)[C@@](C(=O)OC)(c3cc4c(cc3OC)N(C)[C@H]3[C@@](O)(C(=O)OC)[C@H](OC(C)=O)[C@]5(CC)CCCN6CC[C@]43[C@@H]65)C2)C1
3. CC[C@]1(O)C[C@H]2CN(CCc3c([nH]c4ccccc34)[C@@](C(=O)OC)(c3cc4c(cc3OC)N(C)[C@H]3[C@@](O)(C(=O)OC)[C@H](OC(C)=O)[C@]5(CC)CCCN6CC[C@]43[C@@H]65)C2)C1
4. CC[C@]1(O)C[C@H]2CN(CCc3c([nH]c4ccccc34)[C@@](C(=O)OC)(c3cc4c(cc3OC)N(C)[C@H]3[C@@](O)(C(=O)OC)[C@@H](OC(C)=O)[C@]5(CC)C=CCN6CC[C@]43[C@@H]65)C2)C1
5. CC[C@]1(O)C[C@H]2CN(CCc3c([nH]c4ccccc34)[C@@](C(=O)OC)(c3cc4c(cc3OC)N(C)[C@@H]3[C@]45CCN4CC=C[C@@](CC)(C[C@]3(O)C(=O)OC)[C@H]45)C2)C1
6. CC[C@]1(O)C[C@H]2CN(CCc3c([nH]c4ccccc34)[C@@](C(=O)OC)(c3cc4c(cc3OC)N(C)[C@H]3[C@@](O)(C(=O)OC)[C@@H](OC(C)=O)[C@]5(CC)CCN6CCC[C@]43[C@@H]65)C2)C1

6.14
5.46
5.35
5.08
6.18
5.12

Kindly give each listed record's pIC50.
1. CCC1=C[C@H]2CN(CCc3c([nH]c4ccccc34)[C@@](C(=O)OC)(c3cc4c(cc3OC)N(C)[C@H]3[C@@](O)(C(=O)OC)[C@H](OC(C)=O)[C@]5(CC)CCN6CC[C@]43[C@@H]65)C2)C1
2. CC[C@]1(O)C[C@H]2CN(CCc3c([nH]c4ccccc34)[C@@](C(=O)OC)(c3cc4c(cc3OC)N(C)[C@H]3[C@@](O)(C(=O)OC)[C@H](OC(C)=O)[C@]5(CC)CCN6CCC[C@]43[C@@H]65)C2)C1

[5.15, 6.35]
